# assay_protocol: Quantitative High-Throughput drug screen in 47 multiple myeloma cell lines against the NCATS MIPE library collection: LP1_DSMZ cell viability assay (AID 1918982); also: nearly all actives have a fitted effect of over 35% in size; also: potency is read from the fitted curve at half-maximal effect
# run_parameters: LP1 myeloma viability, CellTiter-Glo ATP luminescence, 48 h; series mostly up to 45.8 µM
Records with an inconclusive call do not appear. The source made the active and inactive calls. Calls follow the shape of the dose curve; as a rule, active = well fitted cell-killing curve with a large enough effect; inconclusive = small, poorly fitted or top-dose-only effect, or effect the other way; inactive = no such curve, though single readings can be large or run the other way.
experimental_readout: Potency

Example molecules with recorded Potency:
molecule	Potency
CC[C@@]1(O)C[C@H](O[C@H]2C[C@H](N(C)C)[C@H](O[C@H]3C[C@H](O)[C@H](O[C@H]4CCC(=O)[C@H](C)O4)[C@H](C)O3)[C@H](C)O2)c2c(cc3c(c2O)C(=O)c2c(O)cccc2C3=O)[C@@H]1C(=O)OC	1.05 µM (active)
CCOC(CN1C(=O)[C@](CC(=O)Nc2ccc(C)cc2)(NC(=O)Nc2ccc(C)cc2)c2ccccc21)OCC	inactive
COc1ccc(-c2oc3c(CC=C(C)C)c(OC4O[C@H](CO)[C@@H](O)[C@H](O)[C@@H]4O)cc(O)c3c(=O)c2OC2O[C@@H](C)[C@H](O)[C@@H](O)[C@@H]2O)cc1 (stereo partly specified)	20.9 µM (active)
COc1cc(O)c2c(c1)C(=O)c1cc(C)cc(O)c1C2=O	inactive
CC[C@]1(O)C[C@@H]2CN(CCc3c([nH]c4ccccc34)[C@@](C(=O)OC)(c3cc4c(cc3OC)N(C=O)[C@@H]3C45CCN4CC=C[C@](CC)([C@H]45)[C@@H](OC(C)=O)[C@]3(O)C(=O)OC)C2)C1 (stereo partly specified)	20.9 µM (active)

Proceed to the following item.
Measured Potency of Clc1ccc(C(c2ccc(Cl)cc2)n2cc[n+](CC(OCc3ccc(Cl)cc3Cl)c3ccc(Cl)cc3Cl)c2)cc1 (stereo unspecified) : 18.7 µM (active)
